Hey, just so you know, these numbers are from patent US20160122342A1.

- studySystem: EZH2 within the PRC2 complex (Homo sapiens, UniProt Q15910)
- Construct: FLAG; made in house; host or cells: Sf9 cells
- Sequence (Q15910 whole entry): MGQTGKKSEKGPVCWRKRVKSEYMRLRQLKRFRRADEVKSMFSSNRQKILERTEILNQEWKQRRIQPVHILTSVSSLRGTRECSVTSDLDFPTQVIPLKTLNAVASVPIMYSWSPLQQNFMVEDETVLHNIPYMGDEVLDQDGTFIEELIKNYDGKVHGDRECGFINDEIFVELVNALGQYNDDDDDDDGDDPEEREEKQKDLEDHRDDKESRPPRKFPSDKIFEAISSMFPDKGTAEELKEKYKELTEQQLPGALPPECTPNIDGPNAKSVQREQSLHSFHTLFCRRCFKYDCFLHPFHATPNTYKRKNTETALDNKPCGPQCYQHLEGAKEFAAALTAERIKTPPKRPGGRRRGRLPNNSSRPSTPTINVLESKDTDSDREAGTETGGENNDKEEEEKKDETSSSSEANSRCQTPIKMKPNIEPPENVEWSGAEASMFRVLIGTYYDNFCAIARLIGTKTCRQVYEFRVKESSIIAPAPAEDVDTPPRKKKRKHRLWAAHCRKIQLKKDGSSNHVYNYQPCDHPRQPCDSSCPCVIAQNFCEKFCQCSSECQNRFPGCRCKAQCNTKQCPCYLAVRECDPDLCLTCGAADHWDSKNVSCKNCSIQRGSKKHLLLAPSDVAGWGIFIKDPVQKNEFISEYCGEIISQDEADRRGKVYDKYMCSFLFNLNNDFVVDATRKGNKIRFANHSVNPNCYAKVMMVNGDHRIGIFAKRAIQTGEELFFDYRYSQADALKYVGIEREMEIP
- Sequence (O75530 whole entry partner): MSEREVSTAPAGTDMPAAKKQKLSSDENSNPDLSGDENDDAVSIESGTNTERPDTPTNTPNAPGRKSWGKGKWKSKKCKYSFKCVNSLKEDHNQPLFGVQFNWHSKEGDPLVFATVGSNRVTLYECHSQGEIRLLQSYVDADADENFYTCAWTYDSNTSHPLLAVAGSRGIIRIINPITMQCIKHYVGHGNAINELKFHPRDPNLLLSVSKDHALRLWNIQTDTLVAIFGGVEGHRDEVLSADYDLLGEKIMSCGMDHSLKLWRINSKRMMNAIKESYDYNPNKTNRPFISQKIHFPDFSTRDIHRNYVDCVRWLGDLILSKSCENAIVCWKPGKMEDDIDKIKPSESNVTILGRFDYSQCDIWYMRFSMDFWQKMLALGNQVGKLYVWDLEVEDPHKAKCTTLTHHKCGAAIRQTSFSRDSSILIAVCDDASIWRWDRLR
- Sequence (Q15022 whole entry partner): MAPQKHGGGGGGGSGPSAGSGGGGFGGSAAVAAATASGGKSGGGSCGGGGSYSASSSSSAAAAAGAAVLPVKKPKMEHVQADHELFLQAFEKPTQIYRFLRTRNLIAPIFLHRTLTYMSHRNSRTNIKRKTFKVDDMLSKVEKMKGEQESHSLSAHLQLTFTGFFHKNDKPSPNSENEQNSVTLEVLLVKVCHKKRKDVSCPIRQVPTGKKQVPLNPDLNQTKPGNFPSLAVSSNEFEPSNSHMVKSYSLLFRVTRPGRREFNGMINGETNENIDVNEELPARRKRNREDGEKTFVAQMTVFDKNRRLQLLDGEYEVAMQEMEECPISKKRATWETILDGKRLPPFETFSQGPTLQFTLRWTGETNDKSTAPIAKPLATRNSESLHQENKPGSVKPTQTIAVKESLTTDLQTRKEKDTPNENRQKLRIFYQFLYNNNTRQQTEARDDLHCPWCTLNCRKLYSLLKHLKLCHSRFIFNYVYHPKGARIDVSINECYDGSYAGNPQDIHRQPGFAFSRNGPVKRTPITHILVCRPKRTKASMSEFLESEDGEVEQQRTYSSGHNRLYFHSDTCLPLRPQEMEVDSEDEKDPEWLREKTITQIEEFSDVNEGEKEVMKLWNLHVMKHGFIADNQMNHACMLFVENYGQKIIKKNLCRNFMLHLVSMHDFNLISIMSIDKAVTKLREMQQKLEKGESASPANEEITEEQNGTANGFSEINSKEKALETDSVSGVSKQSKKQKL
- Sequence (Q09028 whole entry partner): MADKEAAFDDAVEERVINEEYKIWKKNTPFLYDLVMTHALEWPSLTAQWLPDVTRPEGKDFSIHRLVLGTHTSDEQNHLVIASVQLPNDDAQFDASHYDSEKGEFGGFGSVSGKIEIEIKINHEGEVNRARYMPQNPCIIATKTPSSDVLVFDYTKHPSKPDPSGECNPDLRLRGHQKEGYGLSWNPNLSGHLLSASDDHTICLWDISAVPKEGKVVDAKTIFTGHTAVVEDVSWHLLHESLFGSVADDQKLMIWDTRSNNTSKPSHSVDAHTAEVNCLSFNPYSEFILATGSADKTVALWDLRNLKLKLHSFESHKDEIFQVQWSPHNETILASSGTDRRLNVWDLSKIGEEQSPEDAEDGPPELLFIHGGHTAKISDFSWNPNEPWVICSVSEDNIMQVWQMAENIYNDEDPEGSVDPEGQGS
- Sequence (Q6ZN18 whole entry partner): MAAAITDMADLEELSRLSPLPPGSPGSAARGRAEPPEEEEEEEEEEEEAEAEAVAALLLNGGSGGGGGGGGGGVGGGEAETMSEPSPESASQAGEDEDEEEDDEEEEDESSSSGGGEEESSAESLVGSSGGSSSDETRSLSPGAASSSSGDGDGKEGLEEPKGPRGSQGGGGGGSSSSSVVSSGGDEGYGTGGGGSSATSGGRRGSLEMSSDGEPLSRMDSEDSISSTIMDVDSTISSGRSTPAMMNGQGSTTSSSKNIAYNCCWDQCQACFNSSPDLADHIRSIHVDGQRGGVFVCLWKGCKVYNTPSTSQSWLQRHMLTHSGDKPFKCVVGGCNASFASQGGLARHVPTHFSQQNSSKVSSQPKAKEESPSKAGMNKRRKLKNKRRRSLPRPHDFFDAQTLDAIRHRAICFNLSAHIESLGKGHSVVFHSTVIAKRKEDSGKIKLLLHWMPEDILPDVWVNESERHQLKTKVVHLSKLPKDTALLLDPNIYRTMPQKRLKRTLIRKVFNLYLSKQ
- testDescription: Assay Protocol 1: EZH2 methyltransferase scintillation proximity assay, mononucleosome substrate
- Assay type: biochemical
- condition: Assay Protocol 1; SPA, 3H-SAM, Histone H3 of mononucleosome purified from HeLa cells; 5-member PRC2 complex; read-out: EZH2 IC50
Entries and their pIC50
Hey, just a heads up that pIC50 is the negative log base 10 of the concentration in molar.

Reference set (4 entries):
INPUT: Can you share its pIC50? I mean this compound: CCN(c1cccc2c1CCCCOCc1cc(C)[nH]c(=O)c1CNC2=O)C1CCOCC1
OUTPUT: 6.30

INPUT: # pIC50 lookup, item CCN(c1cccc2c1C/C=C/CCCc1cc(C)[nH]c(=O)c1CNC2=O)C1CCOCC1
OUTPUT: 7.40

INPUT: Data request, read-out pIC50, for Cc1cc2c(c(=O)[nH]1)CNC(=O)c1cc(Cl)cc(OC(C)C)c1C/C=C/CC2
OUTPUT: 7.00

INPUT: Need pIC50 of CCN(c1cccc2c1C/C=C\CCc1cc(C)[nH]c(=O)c1CNC2=O)C1CCOCC1 , thanks.
OUTPUT: 5.80

Continuing:
INPUT: Report pIC50 for CCN(c1cccc2c1C/C=C/CCc1cc(C)[nH]c(=O)c1CNC2=O)[C@H]1CC[C@H](N(C)C)CC1 please.
OUTPUT: 7.30

INPUT: # pIC50 lookup, item CCN(c1cccc2c1CC=CCc1cc(C)[nH]c(=O)c1CNC2=O)C1CCNCC1
OUTPUT: 5.40

INPUT: Fill in: pIC50 of CCN(c1cccc2c1CC=CCOCc1cc(C)[nH]c(=O)c1CNC2=O)C1CCOCC1 (racemic) is ___
OUTPUT: 6.90

INPUT: Request the reported pIC50 associated with CCN(c1cccc2c1C/C=C/CCc1cc(C)[nH]c(=O)c1CNC2=O)C1CCN(C(CO)CO)CC1
OUTPUT: 6.70

====

pIC50 reference
- studySystem: EZH2 within the PRC2 complex (Homo sapiens)
- Construct: FLAG; made in house; host or cells: Sf9 cells
- testDescription: Assay Protocol 2: EZH2 methyltransferase scintillation proximity assay, biotinylated histone H3 peptide substrate
- Type: biochemical
- condition: SPA, 3H-SAM, biotinylated unmethylated histone H3K27 peptide substrate, 5-member PRC2 complex
Where a name gives a salt, the structure may show the parent alone.
# pIC50: negative log10 of molar concentration; output just the value

Study these solved cases before continuing.
INPUT: pIC50 lookup needed for Cc1cc2c(c(=O)[nH]1)CNC(=O)c1cc(Cl)cc(O[C@H]3CC[C@H](N)CC3)c1C/C=C/CC2 [Example 1, hydrochloride] , thanks.
OUTPUT: 7.00

INPUT: Look up pIC50 for this compound: CCN(c1cccc2c1C/C=C/CCc1cc(C)[nH]c(=O)c1CNC2=O)C1CCC2(CC1)CN(C)C2
OUTPUT: 7.00

INPUT: Sample CCN(c1cccc2c1C/C=C/CCc1cc(C)[nH]c(=O)c1CNC2=O)C1CCN(CC2CC2)CC1 — what was its pIC50?
OUTPUT: 7.40

INPUT: Report pIC50 for CCN(c1cccc2c1C/C=C/CCc1cc(C)[nH]c(=O)c1CNC2=O)[C@H]1CC[C@H](N2CCOCC2)CC1 please.
OUTPUT: 6.90

Continuing:
INPUT: // returns reported pIC50 for input CCN(c1cccc2c1C/C=C\Cc1cc(C)[nH]c(=O)c1CNC2=O)[C@H]1CC[C@H](N(C)C)CC1
OUTPUT: 6.80

INPUT: Fill blank: measured pIC50 of the compound CCN(c1cccc2c1C/C=C/CCc1cc(C)[nH]c(=O)c1CNC2=O)C1CCN(S(C)(=O)=O)CC1 is ____.
OUTPUT: 6.90

INPUT: Returns the measured pIC50 for the input compound. Input: CCN(c1cccc2c1C/C=C/CCc1cc(C)[nH]c(=O)c1CNC2=O)C1CCNCC1
OUTPUT: 6.70

INPUT: GET /values?readout=pIC50&item= CCN(c1cccc2c1C/C=C/CCc1cc(C)[nH]c(=O)c1CNC2=O)[C@H]1CC[C@@H](NC)CC1 [Example 74, formic acid salt]
OUTPUT: 6.80

INPUT: Quick one: pIC50 of Cc1cc2c(c(=O)[nH]1)CNC(=O)c1cc(Cl)cc(OC(C)C)c1C/C=C/CC2 ?
OUTPUT: 6.50

INPUT: GET /values?readout=pIC50&item= CCN(c1cccc2c1C/C=C/CCc1cc(C)[nH]c(=O)c1CNC2=O)[C@H]1CC[C@H](N(C)CC(F)(F)F)CC1
OUTPUT: 6.50
